# System: EfPiwi piRISC loaded with piRNA #1 (26 nt)
# TEST_SUMMARY: pre-steady-state target cleavage rate (min^-1); auxiliary factor: 500 nM Ephydatia muelleri Gtsf1; guide: piRNA #1 5'p-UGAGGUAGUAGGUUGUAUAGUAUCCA; higher = faster piRNA-guided slicing of the target
# cutoff 0.005 applies to pre-steady-state target cleavage rate; >= gives condition met, < gives condition not met

Please check the record GGAGAGGAUACUAAACAUCCUACUACCUCA and state if its pre-steady-state target cleavage rate is at or above 0.005.
condition met

----------
Each entry below lists one item and its recorded pre-steady-state target cleavage rate value.
# System: EfPiwi piRISC loaded with L1MC piRNA (26 nt)
# TEST_SUMMARY: pre-steady-state target cleavage rate (min^-1); auxiliary factor: 500 nM Ephydatia muelleri Gtsf1; guide: L1MC piRNA 5'p-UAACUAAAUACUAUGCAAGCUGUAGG; higher = faster piRNA-guided slicing of the target

Endpoint output: pre-steady-state target cleavage rate of UCCUGCUACAGCUAGCAUUGUAUUUAGUUA . Value?
0.00762

Endpoint output: pre-steady-state target cleavage rate of UCCUGGAUCAGCUUGCACAGUAUUUAGUUA . Value?
0.0672

Endpoint output: pre-steady-state target cleavage rate of UCCUGGAUCAGCUUGCAUUGUAAUUAGUUA . Value?
0.00179

Endpoint output: pre-steady-state target cleavage rate of UCCUGGUACCGCUUGCAUAGUAUUUAGUUA . Value?
0.00412

Endpoint output: pre-steady-state target cleavage rate of UCCUGCUACAGCUUGCAUAGUAUUAACUUA . Value?
0.00397

Endpoint output: pre-steady-state target cleavage rate of UCCUGGAUGCGCUUGCAUAGUAUUUAGUUA . Value?
0.0286

Endpoint output: pre-steady-state target cleavage rate of UCCUCCUACAGCUUGCAUAGUUUUUUGUUA . Value?
0.00441

----------
Each entry below lists one item and its recorded pre-steady-state target cleavage rate value.
# System: MILI (PIWIL2) piRISC loaded with L1MC piRNA (26 nt);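 further: 1 nM active piRISC with 0.1 nM target library at 33 °C single turnover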
# TEST_SUMMARY: pre-steady-state target cleavage rate (min^-1); guide: L1MC piRNA 5'p-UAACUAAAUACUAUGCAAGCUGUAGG; MIWI and MILI are mouse PIWI proteins and EfPiwi is from a freshwater sponge; tags in brackets are library labels; higher = faster piRNA-guided slicing of the target
# TEST_PARAMETERS: auxiliary factor: 500 nM mouse GTSF1
Lab note: jot the number down without any unit.

Example sequences with recorded pre-steady-state target cleavage rate:
| SEQUENCE_INPUT | TESTED_TARGET | MEASUREMENT_NAME | VALUE |
| --- | --- | --- | --- |
| UCCUGGAACAGCUUGCAUAGUAAUUAGAAA | MILI (PIWIL2) piRISC loaded with L1MC piRNA (26 nt) | pre-steady-state target cleavage rate | 0.0609 |
| UCCUGCUACUGCAUGCAUAGUAUUUAGUUA | MILI (PIWIL2) piRISC loaded with L1MC piRNA (26 nt) | pre-steady-state target cleavage rate | 0.282 |
| UCCUGCUACAGCUUGCAAUCUAUUUACAAA | MILI (PIWIL2) piRISC loaded with L1MC piRNA (26 nt) | pre-steady-state target cleavage rate | 0.00954 |
| UCCUCCUACAGCUUGCAAAGUAUUUAGUUA | MILI (PIWIL2) piRISC loaded with L1MC piRNA (26 nt) | pre-steady-state target cleavage rate | 0.167 |
| UCCUGGAUCAGCUGCAUAGUAUUUAGUUA | MILI (PIWIL2) piRISC loaded with L1MC piRNA (26 nt) | pre-steady-state target cleavage rate | 0.25 |
| UCCUGGUACAGCUUGCAUUGUAUUUAGUAA | MILI (PIWIL2) piRISC loaded with L1MC piRNA (26 nt) | pre-steady-state target cleavage rate | 0.112 |
| UCCUGGUACAGGUUGCAAAGUAUUUAGUUA | MILI (PIWIL2) piRISC loaded with L1MC piRNA (26 nt) | pre-steady-state target cleavage rate | 0.117 |
| UCCUCCAACAGCUUGCAUAGUUUUUAGUUA | MILI (PIWIL2) piRISC loaded with L1MC piRNA (26 nt) | pre-steady-state target cleavage rate | 0.0522 |
| UCCUGGAACAGCUUGCAUAGUAUAUACUUA | MILI (PIWIL2) piRISC loaded with L1MC piRNA (26 nt) | pre-steady-state target cleavage rate | 0.0233 |
| UCCUGGAUCAGCUUGCUAGUAUUUAGUUA | MILI (PIWIL2) piRISC loaded with L1MC piRNA (26 nt) | pre-steady-state target cleavage rate | 0.0105 |

Endpoint output: pre-steady-state target cleavage rate of UCCUGCUACAGCUAGCAUAGUUUUUAGUUA . Value?
0.0836

Endpoint output: pre-steady-state target cleavage rate of UCCUGGAUGAGCUUGGAUAGAAUUUAGUUA . Value?
0.0131

Endpoint output: pre-steady-state target cleavage rate of UCCUGGUACAGCUUGCAUAGUUAUUAGUUA . Value?
0.0387
